Origin of the recorded values: patent US12281079B2

Readings of pIC50 for the listed molecules
biological target: mitochondrial RNA polymerase (POLRMT) (Mus musculus); test: Homogeneous TR-FRET assay for mitochondrial transcription activity; assay type: biochemical; conditions: homogeneous TR-FRET assay according to Example 4
pIC50: −log10 of the molar value.

Check out these entries, answers already filled in.
INSERT INTO results (molecule, system_under_test, readout_type, result) VALUES
  ('C[C@@H](Oc1ccc2c(-c3ccc(F)cc3Cl)ccnc2c1)C(=O)Nc1ccncc1', 'mitochondrial RNA polymerase (POLRMT) (Mus musculus)', 'pIC50', '6.00 to 7.00'),
  ('CCOC(=O)C[C@H]1CCCN(C(=O)[C@@H](C)Oc2ccc3c(-c4ccccc4C)ccnc3c2)C1', 'mitochondrial RNA polymerase (POLRMT) (Mus musculus)', 'pIC50', '> 7.70'),
  ('CCOC(=O)C[C@H]1CCCN(C(=O)[C@@H](C)Oc2ccc3c(-c4ccc(F)cc4Cl)cc(C)nc3c2)C1', 'mitochondrial RNA polymerase (POLRMT) (Mus musculus)', 'pIC50', '6.00 to 7.00'),
  ('C[C@@H](Oc1ccc2c(-c3ccc(F)cc3Cl)ccnc2c1)C(=O)N1CCC2(CCNC2=O)CC1', 'mitochondrial RNA polymerase (POLRMT) (Mus musculus)', 'pIC50', '6.00 to 7.00');

Form field: reported pIC50 of Cc1cccc(Cl)c1-c1ccnc2cc(O[C@H](C)C(=O)N3CCC[C@H](CC(=O)O)C3)ccc12
> 7.70

Now this one: C[C@@H](Oc1ccc2c(-c3ccc(F)cc3Cl)cc(Cl)nc2c1)C(=O)O
5.00 to 6.00

Now this one: CNC(=O)C[C@H]1CCCN(C(=O)[C@@H](C)Oc2ccc3c(-c4ccc(F)cc4Cl)cc(Cl)nc3c2)C1
5.00 to 6.00

Now this one: Cc1cccc(C)c1-c1ccnc2cc(O[C@H](C)C(=O)N3CCC[C@H](C(=O)O)C3)ccc12
> 7.70

Now this one: Cc1ccccc1-c1ccnc2cc(O[C@H](C)C(=O)N3CCC[C@H](CC(=O)O)C3)ccc12
7.00 to 7.70

###

biological target: mitochondrial RNA polymerase (POLRMT) (Mus musculus, UniProt Q8BKF1)
Sequence (Q8BKF1 42-1207): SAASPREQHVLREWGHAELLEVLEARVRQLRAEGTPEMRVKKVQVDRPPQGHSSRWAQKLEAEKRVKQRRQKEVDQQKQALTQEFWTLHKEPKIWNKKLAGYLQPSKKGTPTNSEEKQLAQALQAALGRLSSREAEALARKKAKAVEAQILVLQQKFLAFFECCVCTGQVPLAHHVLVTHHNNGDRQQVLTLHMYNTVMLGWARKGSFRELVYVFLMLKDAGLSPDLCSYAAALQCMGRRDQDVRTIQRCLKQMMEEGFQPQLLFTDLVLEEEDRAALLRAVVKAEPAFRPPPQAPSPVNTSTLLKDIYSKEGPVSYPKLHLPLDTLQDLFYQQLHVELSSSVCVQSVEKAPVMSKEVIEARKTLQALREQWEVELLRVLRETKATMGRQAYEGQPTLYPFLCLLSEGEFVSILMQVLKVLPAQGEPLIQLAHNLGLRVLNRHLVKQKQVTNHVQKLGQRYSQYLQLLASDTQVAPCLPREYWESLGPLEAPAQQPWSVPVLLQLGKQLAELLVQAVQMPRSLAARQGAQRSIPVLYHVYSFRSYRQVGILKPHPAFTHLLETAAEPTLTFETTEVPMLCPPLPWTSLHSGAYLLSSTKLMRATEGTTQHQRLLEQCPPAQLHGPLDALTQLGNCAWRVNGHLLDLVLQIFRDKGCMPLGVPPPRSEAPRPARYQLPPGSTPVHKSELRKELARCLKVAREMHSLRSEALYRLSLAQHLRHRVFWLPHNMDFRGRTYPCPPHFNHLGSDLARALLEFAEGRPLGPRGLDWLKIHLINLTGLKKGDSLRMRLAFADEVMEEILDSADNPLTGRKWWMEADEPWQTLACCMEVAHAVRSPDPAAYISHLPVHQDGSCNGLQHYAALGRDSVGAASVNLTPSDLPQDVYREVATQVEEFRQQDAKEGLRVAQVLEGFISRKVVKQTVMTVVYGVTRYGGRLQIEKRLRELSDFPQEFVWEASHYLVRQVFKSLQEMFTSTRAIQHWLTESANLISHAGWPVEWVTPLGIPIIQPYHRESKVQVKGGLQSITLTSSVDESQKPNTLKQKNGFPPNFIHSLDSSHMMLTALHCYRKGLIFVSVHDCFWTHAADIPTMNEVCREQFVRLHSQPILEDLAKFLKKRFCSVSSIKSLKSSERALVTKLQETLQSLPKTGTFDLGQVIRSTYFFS
pIC50: −log10 of the molar value.
Readings of pIC50 for the listed molecules

INSERT INTO results (molecule, result) VALUES
  ('CCOC(=O)[C@H]1CCCN(C(=O)[C@@H](C)Oc2ccc3c(-c4ccc(F)cc4C)cc(Cl)nc3c2)C1', '5.00 to 6.00'),
  ('Cc1cc(-c2ccc(F)cc2Cl)c2ccc(O[C@H](C)C(=O)N3CCC[C@H](C(=O)O)C3)cc2n1', '6.00 to 7.00'),
  ('CNC(=O)[C@H]1CCCN(C(=O)[C@@H](C)Oc2ccc3c(-c4ccccc4Cl)cc(Cl)nc3c2)C1', '5.00 to 6.00');

Form field: reported pIC50 of C[C@@H](Oc1ccc2c(-c3ccc(F)cc3Cl)ccnc2c1)C(=O)N1CCCC(C2(C(=O)O)CC2)C1 (mixture of isomers)
7.00 to 7.70

Now this one: C[C@@H](Oc1ccc2c(-c3ccc(F)cc3Cl)ccnc2c1)C(=O)N1CC[C@@H](CC(=O)O)C1
6.00 to 7.00

Now this one: C[C@@H](Oc1ccc2c(-c3c(C(F)(F)F)cccc3C(F)(F)F)ccnc2c1)C(=O)N1CCC[C@H](CC(=O)O)C1
5.00 to 6.00

###

The following are reported IC50 results, target or system mitochondrial RNA polymerase (POLRMT) (Mus musculus, UniProt Q8BKF1).

Form field: reported IC50 of C[C@@H](Oc1ccc2c(-c3ccccc3Cl)cc(Cl)nc2c1)C(=O)N1CCC[C@H](CC(=O)O)C1
1000 to 10000 nM

###

The following are reported IC50 results, target or system mitochondrial RNA polymerase (POLRMT) (Mus musculus).

Check out these entries, answers already filled in.
INSERT INTO measurements (molecule, system_under_test, result) VALUES
  ('C[C@@H](Oc1ccc2c(-c3c(Cl)cc(F)cc3Cl)ccnc2c1)C(=O)N1CCCC(C(C)(C)C(=O)O)C1 (stereo partly shown)', 'mitochondrial RNA polymerase (POLRMT) (Mus musculus)', '20 to 100 nM'),
  ('Cc1cscc1-c1ccnc2cc(O[C@H](C)C(=O)N3CCC[C@H](CC(=O)O)C3)ccc12', 'mitochondrial RNA polymerase (POLRMT) (Mus musculus)', '100 to 1000 nM'),
  ('C[C@@H](Oc1ccc2c(-c3c(Cl)cc(F)cc3Cl)ccnc2c1)C(=O)N1CCCC2(CC2C(=O)O)C1 (mixture of isomers)', 'mitochondrial RNA polymerase (POLRMT) (Mus musculus)', '< 20 nM'),
  ('CC(C)N(C)C(=O)[C@@H](C)Oc1ccc2c(-c3ccc(F)cc3Cl)ccnc2c1', 'mitochondrial RNA polymerase (POLRMT) (Mus musculus)', '100 to 1000 nM'),
  ('Cc1cc(F)cc(C)c1-c1ccnc2cc(O[C@H](C)C(=O)N3CCC[C@H](CC(=O)O)C3)ccc12', 'mitochondrial RNA polymerase (POLRMT) (Mus musculus)', '< 20 nM'),
  ('Cc1cc(-c2ccccc2C)c2ccc(O[C@H](C)C(=O)N3CCC[C@H](C(=O)O)C3)cc2n1', 'mitochondrial RNA polymerase (POLRMT) (Mus musculus)', '100 to 1000 nM');

Form field: reported IC50 of Cc1ccccc1-c1cc(Cl)nc2cc(O[C@H](C)C(=O)N3CCC[C@H](CC(=O)O)C3)ccc12
20 to 100 nM

###

Biological target: mitochondrial RNA polymerase (POLRMT) (Mus musculus, UniProt Q8BKF1)
Assay: Homogeneous TR-FRET assay for mitochondrial transcription activity
Format: biochemical
Settings: homogeneous TR-FRET assay according to Example 4
Description: The TR-FRET assay was basically conducted as described in WO2016/193231A1, especially as described in example 1 (hereby incorporated by reference). With respect to the back ground of the mitochondrial transcription it is referred to Falkenberg et al. (2002) and Posse et al. (Posse et al., 2015). The method monitors the activity of mitochondrial RNA-polymerase via detection of the formation of its product, a 407 bp long RNA sequence. […]
Readout Type: IC50

Check out these entries, answers already filled in.
INSERT INTO assay_data (compound, readout_type, result) VALUES
  ('C[C@@H](Oc1ccc2c(-c3ccc(F)cc3Cl)cc(Cl)nc2c1)C(=O)N1CCC[C@H](C(N)=O)C1 [Compound 81]', 'IC50', '1000 to 10000 nM'),
  ('C[C@@H](Oc1ccc2c(-c3ccc(F)cc3Cl)ccnc2c1)C(=O)N1CCC[C@](C)(C(=O)O)C1 [Compound 189]', 'IC50', '< 20 nM'),
  ('COC(=O)C[C@@H]1CCN(C(=O)[C@@H](C)Oc2ccc3c(-c4ccc(F)cc4Cl)ccnc3c2)C1 [Compound 67]', 'IC50', '100 to 1000 nM');

// fetch mitochondrial RNA polymerase (POLRMT) (Mus musculus, UniProt Q8BKF1) IC50 for C[C@@H](Oc1ccc2c(-c3ccccc3Cl)ccnc2c1)C(=O)N(C)C [Compound 88]
1000 to 10000 nM

Now this one: C[C@@H](Oc1ccc2c(-c3ccc(F)cc3Cl)ccnc2c1)C(=O)N1CCC[C@H](S(N)(=O)=O)C1 [Compound 116]
100 to 1000 nM

Now this one: O=C(O)[C@H]1CCCN(C(=O)COc2ccc3c(-c4ccccc4Cl)ccnc3c2)C1 [Compound 46]
100 to 1000 nM

Now this one: CC(Oc1ccc2c(-c3ccccc3Cl)ccnc2c1)C(=O)N1CCC[C@H](C(=O)O)C1 (mixture of isomers) [Compound 23]
20 to 100 nM

Now this one: CCOC(=O)[C@H]1CCCN(C(=O)[C@@H](C)Oc2ccc3c(-c4ccccc4Cl)cc(F)nc3c2)C1 [Compound 41]
100 to 1000 nM

###

The following are reported pIC50 results, target or system UniProt Q8BKF1.
pIC50: −log10 of the molar value.

Check out these entries, answers already filled in.
INSERT INTO assay_data (compound, result) VALUES
  ('C[C@@H](Oc1ccc2c(-c3ccc(F)cc3Cl)ccnc2c1)C(=O)N1CCCC1', '6.00 to 7.00'),
  ('C[C@@H](Oc1ccc2c(-c3c(Cl)cc(F)cc3Cl)ccnc2c1)C(=O)N1CCCC(C2(C(=O)O)CC2)C1 (mixture of isomers)', '7.00 to 7.70'),
  ('Cc1cccc(C)c1-c1ccnc2cc(O[C@H](C)C(=O)N3CCCC(CS(N)(=O)=O)C3)ccc12 (mixture of isomers)', '> 7.70'),
  ('C[C@@H](Oc1ccc2c(-c3ccccc3Cl)ccnc2c1)C(=O)N1CCCCC1', '6.00 to 7.00'),
  ('Cc1cc(F)ccc1-c1cc(Cl)nc2cc(O[C@H](C)C(=O)N3CCC[C@H](CC(=O)O)C3)ccc12', '6.00 to 7.00');

Form field: reported pIC50 of C[C@@H](Oc1ccc2c(-c3cccc(F)c3Cl)ccnc2c1)C(=O)N1CCC[C@H](CC(=O)O)C1
7.00 to 7.70

Now this one: CCOC(=O)C[C@H]1CCCN(C(=O)[C@@H](C)Oc2ccc3c(-c4ccccc4C)cc(C)nc3c2)C1
6.00 to 7.00

Now this one: COC(=O)[C@@H]1CCCN(C(=O)[C@@H](C)Oc2ccc3c(-c4ccc(F)cc4Cl)ccnc3c2)C1
6.00 to 7.00

Now this one: C[C@@H](Oc1ccc2c(-c3ccccc3Cl)cc(F)nc2c1)C(=O)O
5.00 to 6.00

Now this one: C[C@@H](Oc1ccc2c(-c3c(Cl)cc(F)cc3Cl)ccnc2c1)C(=O)N1CCC[C@H](CC(=O)O)C1
7.00 to 7.70

Now this one: C[C@@H](Oc1ccc2c(-c3ccc(F)cc3Cl)ccnc2c1)C(=O)N1CCC[C@H](CC(=O)O)C1
7.00 to 7.70

Now this one: CCOC(=O)[C@H]1CCCN(C(=O)[C@@H](C)Oc2ccc3c(-c4c(C)cccc4C)ccnc3c2)C1
> 7.70

Now this one: C[C@@H](Oc1ccc2c(-c3ccccc3Cl)ccnc2c1)C(=O)N1CCC[C@H](C(=O)O)C1
> 7.70

Now this one: C[C@@H](Oc1ccc2c(-c3ccccc3Cl)cc(Cl)nc2c1)C(=O)N1CCC[C@H](C(=O)N(C)C)C1
5.00 to 6.00
